- assay.target: human cannabinoid CB1 receptor (Homo sapiens, UniProt P21554)
- Construct: expressed in transfected cells; host or cells: Chinese hamster ovary (CHO) cells, membrane preparations
- Sequence (P21554 whole entry): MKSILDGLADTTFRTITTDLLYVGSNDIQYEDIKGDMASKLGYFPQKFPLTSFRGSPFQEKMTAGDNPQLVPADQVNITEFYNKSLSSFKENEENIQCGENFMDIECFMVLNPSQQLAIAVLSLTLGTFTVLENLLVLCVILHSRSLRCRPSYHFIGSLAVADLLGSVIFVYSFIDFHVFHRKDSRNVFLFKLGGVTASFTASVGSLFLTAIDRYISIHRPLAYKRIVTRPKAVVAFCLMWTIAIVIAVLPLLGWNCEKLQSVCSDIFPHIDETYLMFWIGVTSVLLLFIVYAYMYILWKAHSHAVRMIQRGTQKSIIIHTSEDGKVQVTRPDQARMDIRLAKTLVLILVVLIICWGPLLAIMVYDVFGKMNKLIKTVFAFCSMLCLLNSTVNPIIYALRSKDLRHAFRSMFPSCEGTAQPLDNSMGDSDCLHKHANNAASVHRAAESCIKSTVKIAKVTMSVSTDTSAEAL
- assay.remarks: In vitro affinity for cannabinoid-CB1 receptors ([3H]CP-55,940 radioligand binding)
- measurement.context: membranes of CHO cells stably transfected with human CB1, read-out: receptor binding Human CB1 affinity pKi (converted)
- Experimental: In Vitro Affinity for Cannabinoid-CB1 Receptors The affinity of the compounds of the invention for cannabinoid CB1 receptors can be determined using membrane preparations of Chinese hamster ovary (CHO) cells in which the human cannabinoid CB1 receptor is stably transfected in conjunction with [^3H]CP-55,940 as radioligand. […] Radioactivity on the filter is measured by liquid scintillation counting.
Exam item: assign yes to entries whose Ki is below 30 nM and no to entries at or above 30 nM. Note that a value of exactly 30 nM receives no.

CCCCCN1N=C(C(=O)NCc2cccnc2)CC1c1ccccc1 (stereo not shown) ... no
CCCCN1N=C(C(=O)NC(C)(C)c2ccccc2)CC1c1ccccc1 (stereo not shown) ... no
CCCCCN1N=C(C(=O)Nc2cccc3ccccc23)CC1c1ccccc1 (stereo not shown) ... no
CC(C)CN1N=C(C(=O)N[C@H]2C[C@H]3CC[C@]2(C)C3(C)C)CC1c1ccccc1 (stereo partly shown) ... no
CCCCCN1N=C(C(=O)NC(C)(C)c2ccccc2)CC1c1ccccc1 (stereo not shown) ... yes
CCCCCN1N=C(C(=O)NC2C3CC4CC(C3)CC2C4)CC1c1ccccc1 (stereo not shown) ... yes
CCCCCN1N=C(C(=O)NC(C)c2ccccc2)CC1c1ccccc1 (mixture of isomers) ... no
CCCCN1N=C(C(=O)NC(C)(C)c2ccccc2)[C@@H](C)[C@@H]1c1ccccc1 (relative stereo) ... yes

INPUT: I wonder whether CCCCCN1N=C(C(=O)NC(C)(C)c2ccc(F)cc2)CC1c1ccccc1 (stereo not shown) has Ki below 30 nM. Can you tell?
OUTPUT: yes

INPUT: I wonder whether CCCCCN1N=C(C(=O)NCc2cccc(C(F)(F)F)c2)CC1c1ccccc1 (racemic) has Ki below 30 nM. Can you tell?
OUTPUT: no

INPUT: I wonder whether CCCCCN1N=C(C(=O)N[C@H]2C[C@H]3CC[C@]2(C)C3(C)C)CC1c1ccccc1 (stereo partly shown) has Ki below 30 nM. Can you tell?
OUTPUT: yes

INPUT: I wonder whether CCCCCN1N=C(C(=O)NC23CC4CC(CC(C4)C2)C3)CC1c1ccccc1 (stereo not shown) has Ki below 30 nM. Can you tell?
OUTPUT: yes

INPUT: I wonder whether CCCCCN1N=C(C(=O)N[C@H]2C[C@H]3CC[C@]2(C)C3(C)C)CC1c1ccccc1F (stereo partly shown) has Ki below 30 nM. Can you tell?
OUTPUT: yes
